Biological target: KDR (human, UniProt P35968 20-1356)
Sequence (P35968 20-1356): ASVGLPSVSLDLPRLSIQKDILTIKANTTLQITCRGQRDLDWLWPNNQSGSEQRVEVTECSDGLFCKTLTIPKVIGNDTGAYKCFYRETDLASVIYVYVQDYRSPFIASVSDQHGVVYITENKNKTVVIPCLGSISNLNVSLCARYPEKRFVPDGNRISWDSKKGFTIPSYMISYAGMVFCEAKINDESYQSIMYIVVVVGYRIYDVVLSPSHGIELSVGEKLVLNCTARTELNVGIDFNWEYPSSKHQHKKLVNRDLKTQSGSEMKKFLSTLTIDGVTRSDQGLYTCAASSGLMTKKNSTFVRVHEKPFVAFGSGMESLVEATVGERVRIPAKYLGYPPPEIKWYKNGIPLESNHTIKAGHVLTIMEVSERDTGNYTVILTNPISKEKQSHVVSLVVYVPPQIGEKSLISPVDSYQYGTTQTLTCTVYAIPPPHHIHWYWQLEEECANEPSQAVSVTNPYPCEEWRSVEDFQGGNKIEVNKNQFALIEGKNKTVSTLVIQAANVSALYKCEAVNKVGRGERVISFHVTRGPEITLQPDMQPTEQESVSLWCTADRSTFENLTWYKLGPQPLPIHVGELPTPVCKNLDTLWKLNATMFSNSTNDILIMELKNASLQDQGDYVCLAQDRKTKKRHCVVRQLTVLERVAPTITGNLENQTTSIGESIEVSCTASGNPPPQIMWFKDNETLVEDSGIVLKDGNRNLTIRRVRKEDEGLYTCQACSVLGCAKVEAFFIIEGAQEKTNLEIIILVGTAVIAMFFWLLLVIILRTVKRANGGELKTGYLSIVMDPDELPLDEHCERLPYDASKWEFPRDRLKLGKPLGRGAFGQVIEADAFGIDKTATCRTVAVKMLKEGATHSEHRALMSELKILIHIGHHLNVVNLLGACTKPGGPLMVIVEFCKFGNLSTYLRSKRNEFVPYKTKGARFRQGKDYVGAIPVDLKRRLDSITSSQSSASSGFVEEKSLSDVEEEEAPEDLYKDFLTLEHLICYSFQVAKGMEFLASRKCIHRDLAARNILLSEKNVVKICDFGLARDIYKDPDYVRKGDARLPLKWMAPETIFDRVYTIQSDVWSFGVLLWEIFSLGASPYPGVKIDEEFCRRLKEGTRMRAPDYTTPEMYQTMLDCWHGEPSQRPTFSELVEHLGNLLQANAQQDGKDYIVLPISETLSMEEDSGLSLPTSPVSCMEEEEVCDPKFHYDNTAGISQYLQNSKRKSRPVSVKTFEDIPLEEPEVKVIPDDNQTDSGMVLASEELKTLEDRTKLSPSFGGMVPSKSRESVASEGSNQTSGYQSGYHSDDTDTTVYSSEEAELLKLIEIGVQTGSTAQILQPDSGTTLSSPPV
Assay: cell-based or functional assay
quantity_kind: % of Max VEGF KDR pTyr Activity (at 133 nM antibody concentration), Average (%)

binder	unit_annotation	endpoint_value
1G6 (antibody, V domains shown) VH: EVQLLESGGGLVQPGGSLRLSCAASGFTFSSYAMSWVRQAPGKGLEWVSAISGGGGNTYYADSVKGRFTISRDNSKNTLYLQMNSLRAEDTAVYYCSKVATDYWGQGTLVTVSS VL: QPVLTQSSSASASLGSSVKLTCTLSSGHSSYIIAWHQQQPGKAPRYLMKLEGSGSYNKGSGVPDRFSGSSSGADRYLTISNLQFEDEADYYCETWDSYTVVFGGGTKLTVL	%	13
30F6 (antibody, V domains shown) VH: QVQLVESGGGVVQPGRSLRLSCAASGFTFSTYGMHWVRQAPGKGLEWVAVIWYDGSNKYYADSVKGRFTISRDNSKNTLYLQMNSLRAEDTAVYYCACSYWNDDYYYGMDVWGQGTTVTVSS VL: DIQMTQSPSSLSASVGDRVIITCRASQNISSYLIWYQQKPGKAPNLLIHTTSSLQRGVPSRFSGSGSGTDFTLTISSLQPEDFATYYCQQSYSAPLTFGGGTKVEIK	%	13
27A3 (antibody, V domains shown) VH: QLQLQESGPGLVKPSETLSLTCTVSGGSISSRSDYWGWIRQPPGKGLEWIGTIYYSGDTYYNPSLKSRVTISVDTSKNQFSLKLSSVTAADTAVYYCARQQLVLYYFDYWGQGTLVTVSS VL: EIVLTQSPGTLSLSPGERATLSCRASQSVSSSYLAWYQQKPGQAPRLLIYATSNRATGIPDRFSGSGSGTDFTLTISRLEPEDFAVYYCQQHGSSPPLTFGGGTKVEIK	%	19
